assay: Plasma pharmacokinetics at steady state of sorafenib; assay type: in vivo, patients with advanced cancer; conditions: plasma; Day 1 of cycle 5; sorafenib 400 mg bid
Each entry below lists one item and its recorded C trough,norm, geometric mean (% CV) value.

Consider the reported C trough,norm, geometric mean (% CV) for these compounds:
Compound	C trough,norm, geometric mean (% CV)
CNC(=O)c1cc(Oc2ccc(NC(=O)Nc3ccc(Cl)c(C(F)(F)F)c3)cc2)cc[n+]1[O-] [BAY 67-3472]	0.1 (111.5) kg/L
NC(=O)c1cc(Oc2ccc(NC(=O)Nc3ccc(Cl)c(C(F)(F)F)c3)cc2)ccn1 [BAY 43-9007]	<0.1 (84.8) kg/L
CNC(=O)c1cc(Oc2ccc(NC(=O)Nc3ccc(Cl)c(C(F)(F)F)c3)cc2)ccn1 [sorafenib]	0.6 (83.8) kg/L

Reported C trough,norm, geometric mean (% CV) for NC(=O)c1cc(Oc2ccc(NC(=O)Nc3ccc(Cl)c(C(F)(F)F)c3)cc2)cc[n+]1[O-] [BAY 68-7769] was <0.1 (124.7) kg/L
